tested-system: hNav1.7 (Homo sapiens (Human))
experimental-protocol: Electrophysiological assay (EP), voltage clamp on Syncropatch 384PE, CHO cells stably expressing Nav1.7
Assay type: cell-based
run-parameters: holding potential −50 mV, 7.5 min compound incubation, read-out: EP_SP hNav1.7 EVO IC50
Sequence (Q15858 other isoform, or with tags, fused parts or gaps): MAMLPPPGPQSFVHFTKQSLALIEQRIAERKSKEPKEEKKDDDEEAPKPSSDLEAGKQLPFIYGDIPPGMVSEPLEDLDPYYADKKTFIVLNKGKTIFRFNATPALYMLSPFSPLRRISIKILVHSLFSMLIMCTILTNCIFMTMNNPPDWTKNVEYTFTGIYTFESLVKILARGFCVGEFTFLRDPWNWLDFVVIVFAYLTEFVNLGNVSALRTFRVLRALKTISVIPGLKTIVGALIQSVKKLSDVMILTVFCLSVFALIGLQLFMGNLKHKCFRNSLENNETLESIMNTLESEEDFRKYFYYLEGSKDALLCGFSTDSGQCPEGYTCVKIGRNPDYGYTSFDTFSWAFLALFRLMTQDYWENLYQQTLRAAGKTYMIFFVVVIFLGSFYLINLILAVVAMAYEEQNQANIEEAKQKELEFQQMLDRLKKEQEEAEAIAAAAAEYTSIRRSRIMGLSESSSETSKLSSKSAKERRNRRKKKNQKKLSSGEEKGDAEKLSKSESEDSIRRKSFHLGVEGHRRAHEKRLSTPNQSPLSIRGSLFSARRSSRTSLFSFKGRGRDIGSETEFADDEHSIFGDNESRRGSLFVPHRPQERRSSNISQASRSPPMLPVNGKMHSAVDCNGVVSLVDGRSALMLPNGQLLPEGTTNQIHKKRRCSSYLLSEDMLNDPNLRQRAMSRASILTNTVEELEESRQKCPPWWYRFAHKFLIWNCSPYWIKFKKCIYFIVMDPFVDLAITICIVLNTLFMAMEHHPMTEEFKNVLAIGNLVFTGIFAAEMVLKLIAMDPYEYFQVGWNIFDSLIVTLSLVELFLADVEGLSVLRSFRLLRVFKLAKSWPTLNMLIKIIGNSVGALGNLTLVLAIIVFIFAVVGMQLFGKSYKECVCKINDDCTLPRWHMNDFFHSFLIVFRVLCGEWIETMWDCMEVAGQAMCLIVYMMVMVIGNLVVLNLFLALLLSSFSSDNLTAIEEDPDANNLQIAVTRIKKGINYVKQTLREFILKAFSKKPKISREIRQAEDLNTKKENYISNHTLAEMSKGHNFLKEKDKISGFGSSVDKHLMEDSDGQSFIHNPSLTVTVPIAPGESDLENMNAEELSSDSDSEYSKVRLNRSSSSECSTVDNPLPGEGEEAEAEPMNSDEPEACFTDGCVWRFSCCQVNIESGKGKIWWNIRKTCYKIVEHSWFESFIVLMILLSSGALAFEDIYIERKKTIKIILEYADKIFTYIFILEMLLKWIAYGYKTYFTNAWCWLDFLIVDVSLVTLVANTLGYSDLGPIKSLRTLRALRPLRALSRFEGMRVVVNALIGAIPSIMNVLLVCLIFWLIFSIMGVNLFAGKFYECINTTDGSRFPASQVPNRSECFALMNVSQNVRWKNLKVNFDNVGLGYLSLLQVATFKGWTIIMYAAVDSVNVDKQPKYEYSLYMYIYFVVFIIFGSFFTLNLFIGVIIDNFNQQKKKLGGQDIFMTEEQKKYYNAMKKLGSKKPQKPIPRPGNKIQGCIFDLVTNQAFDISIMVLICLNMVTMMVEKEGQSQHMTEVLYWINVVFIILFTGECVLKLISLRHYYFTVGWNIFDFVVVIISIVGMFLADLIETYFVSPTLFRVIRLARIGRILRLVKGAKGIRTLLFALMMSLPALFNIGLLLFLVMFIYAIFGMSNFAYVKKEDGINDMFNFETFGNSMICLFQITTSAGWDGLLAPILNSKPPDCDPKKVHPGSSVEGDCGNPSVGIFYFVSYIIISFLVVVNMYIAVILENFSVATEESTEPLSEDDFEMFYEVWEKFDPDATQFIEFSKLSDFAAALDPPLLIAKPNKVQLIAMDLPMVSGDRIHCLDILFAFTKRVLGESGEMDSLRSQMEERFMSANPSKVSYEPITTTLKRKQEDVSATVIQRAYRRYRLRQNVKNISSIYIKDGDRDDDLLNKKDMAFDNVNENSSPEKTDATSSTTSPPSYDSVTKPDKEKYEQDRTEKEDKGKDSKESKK
pIC50: −log10 of the molar value. Where a name gives a salt, the structure may show the parent alone.
measured-attribute: pIC50

CN(C)[C@H]1C[C@@H](c2cccc(C(F)(F)F)c2)CC[C@@H]1Oc1cc(F)c(S(=O)(=O)Nc2ccncn2)cc1Br | 9.28

(P) CN(C)[C@H]1C[C@@](O)(c2cccc(C(F)(F)F)c2)CC[C@@H]1Nc1cc(F)c(S(=O)(=O)Nc2ccncn2)cc1Cl [Example 35, formate]
(Q) CN(C)[C@H]1C[C@@H](c2cc(C(F)(F)F)cc(C(F)(F)F)c2)CC[C@@H]1Nc1cc(F)c(S(=O)(=O)Nc2ccncn2)cc1Cl
Pick one: P or Q . Which has the bigger pIC50 number? Output the label that corresponds to your choice.
Q
(Q: 9.27, P: 8.72)

* * *

tested-system: hNav1.7 (Homo sapiens (Human), UniProt Q15858)
experimental-protocol: Tritiated compound binding to membranes from cells heterologously expressing hNav1.7 and the β1 subunit (Nav1.7 LBA)
run-parameters: competitive binding vs [3H]compound, membranes with hNav1.7 and β1 subunit; read-out: Nav1.7 LBA EVO IC50
Sequence (Q15858 whole entry, looked up): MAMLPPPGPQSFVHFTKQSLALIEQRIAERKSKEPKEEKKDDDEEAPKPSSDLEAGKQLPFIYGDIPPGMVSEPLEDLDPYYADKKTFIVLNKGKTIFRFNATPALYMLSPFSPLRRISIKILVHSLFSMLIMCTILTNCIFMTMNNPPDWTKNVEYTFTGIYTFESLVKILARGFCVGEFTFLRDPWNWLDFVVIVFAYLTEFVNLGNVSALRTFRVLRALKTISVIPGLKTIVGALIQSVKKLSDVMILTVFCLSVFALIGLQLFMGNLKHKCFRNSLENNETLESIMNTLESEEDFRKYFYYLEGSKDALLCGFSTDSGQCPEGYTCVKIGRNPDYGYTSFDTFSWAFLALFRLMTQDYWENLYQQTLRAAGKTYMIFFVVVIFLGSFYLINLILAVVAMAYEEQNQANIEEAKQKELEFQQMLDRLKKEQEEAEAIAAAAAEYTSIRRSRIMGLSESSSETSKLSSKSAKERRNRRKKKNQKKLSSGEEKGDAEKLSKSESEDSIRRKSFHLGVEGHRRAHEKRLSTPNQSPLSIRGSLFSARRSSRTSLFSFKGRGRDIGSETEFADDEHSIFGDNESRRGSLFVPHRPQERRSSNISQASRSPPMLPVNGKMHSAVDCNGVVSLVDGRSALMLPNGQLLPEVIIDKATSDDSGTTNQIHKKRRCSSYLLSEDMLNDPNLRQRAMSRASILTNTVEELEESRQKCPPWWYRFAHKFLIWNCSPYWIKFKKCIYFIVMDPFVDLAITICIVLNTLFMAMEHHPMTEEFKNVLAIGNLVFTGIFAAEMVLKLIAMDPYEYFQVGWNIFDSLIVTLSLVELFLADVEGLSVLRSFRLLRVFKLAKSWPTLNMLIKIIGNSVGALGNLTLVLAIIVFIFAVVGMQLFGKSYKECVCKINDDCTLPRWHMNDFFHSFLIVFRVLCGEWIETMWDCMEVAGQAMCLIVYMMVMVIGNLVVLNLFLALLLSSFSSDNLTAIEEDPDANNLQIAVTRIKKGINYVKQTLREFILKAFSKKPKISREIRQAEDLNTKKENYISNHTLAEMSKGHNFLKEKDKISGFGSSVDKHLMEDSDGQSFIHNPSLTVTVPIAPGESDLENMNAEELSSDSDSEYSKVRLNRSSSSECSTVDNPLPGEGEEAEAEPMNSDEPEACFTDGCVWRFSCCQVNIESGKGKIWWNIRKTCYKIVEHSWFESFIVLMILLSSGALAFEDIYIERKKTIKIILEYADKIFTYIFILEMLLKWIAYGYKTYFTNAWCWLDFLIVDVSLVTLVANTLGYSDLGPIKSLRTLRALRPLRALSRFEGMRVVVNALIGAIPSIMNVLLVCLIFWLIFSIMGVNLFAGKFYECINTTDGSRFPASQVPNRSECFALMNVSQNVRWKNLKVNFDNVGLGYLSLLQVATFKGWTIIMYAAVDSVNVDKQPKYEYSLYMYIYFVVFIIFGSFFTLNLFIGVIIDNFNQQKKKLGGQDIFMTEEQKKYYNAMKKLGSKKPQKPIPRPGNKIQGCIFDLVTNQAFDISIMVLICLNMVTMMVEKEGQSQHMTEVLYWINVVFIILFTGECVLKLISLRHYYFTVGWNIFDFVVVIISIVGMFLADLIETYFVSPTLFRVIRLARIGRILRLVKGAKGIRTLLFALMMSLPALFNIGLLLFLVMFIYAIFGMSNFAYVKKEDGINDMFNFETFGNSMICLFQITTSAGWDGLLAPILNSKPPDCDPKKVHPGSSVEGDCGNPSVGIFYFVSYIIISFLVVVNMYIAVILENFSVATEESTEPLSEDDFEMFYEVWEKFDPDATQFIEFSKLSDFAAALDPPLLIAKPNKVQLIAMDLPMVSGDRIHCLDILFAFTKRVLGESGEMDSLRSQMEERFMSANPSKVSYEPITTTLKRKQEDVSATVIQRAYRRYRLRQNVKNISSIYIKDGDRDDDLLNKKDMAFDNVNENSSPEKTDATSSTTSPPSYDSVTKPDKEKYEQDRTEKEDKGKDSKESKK
Sequence (Q07699 whole entry partner, looked up): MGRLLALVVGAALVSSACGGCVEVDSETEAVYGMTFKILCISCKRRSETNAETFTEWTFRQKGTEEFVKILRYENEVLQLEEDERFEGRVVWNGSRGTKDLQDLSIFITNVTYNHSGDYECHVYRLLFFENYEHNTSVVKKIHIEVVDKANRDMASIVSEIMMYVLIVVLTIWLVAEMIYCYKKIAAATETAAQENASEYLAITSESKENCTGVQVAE
Where a name gives a salt, the structure may show the parent alone.
measured-attribute: IC50 (nM)

# example entries with known answers
CN(C)[C@H]1C[C@@H](c2cccc(C3COC3)c2)CC[C@@H]1Nc1cc(F)c(S(=O)(=O)Nc2ccncn2)cc1Cl | 45.8
CN1CC[C@H](C(=O)N(C)[C@H]2C[C@@H](c3cccc(C(F)(F)F)c3)CC[C@@H]2Nc2cc(F)c(S(=O)(=O)Nc3ccncn3)cc2Cl)C1 | 2.45
O=S(=O)(Nc1ccncn1)c1cc(F)c(N[C@H]2CC[C@H](c3cccc(C(F)(F)F)c3)C[C@@H]2N2CCCC2)cc1F [Example 23, formate] | 1.21
O=S(=O)(Nc1ccncn1)c1cc(F)c(O[C@H]2CC[C@H](c3cccc(C(F)(F)F)c3)C[C@@H]2N2CCCC2)cc1F | 22.7

(A) CN(C)[C@H]1CN(c2cc(C(F)(F)F)ccn2)CC[C@@H]1Nc1cc(F)c(S(=O)(=O)Nc2ccncn2)cc1Cl [Example 71, formate]
(B) CN(C)[C@H]1C[C@@H](c2ccc(Cl)c(C(F)(F)F)c2)CC[C@@H]1Nc1cc(F)c(S(=O)(=O)Nc2ccncn2)cc1Cl
Dear colleague, could you let me know whether A or B has the lower recorded IC50? Thanks. Output the label that corresponds to your choice.
B

* * *

tested-system: UniProtKB Q15858
experimental-protocol: Electrophysiological assay (EP), voltage clamp on Syncropatch 384PE, CHO cells stably expressing Nav1.7
Assay type: cell-based
run-parameters: holding potential −50 mV, 7.5 min compound incubation, read-out: EP_SP hNav1.7 EVO IC50
pIC50: −log10 of the molar value. Structures can show the parent of a compound that is named as a salt.
measured-attribute: pIC50

# example entries with known answers
CN(C)[C@H]1C[C@@H](c2cc(C(F)(F)F)cc(C(F)(F)F)c2)CC[C@@H]1Nc1cc(F)c(S(=O)(=O)Nc2ccncn2)cc1F | 9.19
CN(C)[C@H]1C[C@@H](c2cccc(C(C)(F)F)c2)CC[C@@H]1Nc1cc(F)c(S(=O)(=O)Nc2ccncn2)cc1Cl | 8.80
CN1CC(N[C@H]2C[C@@H](c3cccc(C(F)(F)F)c3)CC[C@@H]2Oc2cc(F)c(S(=O)(=O)Nc3ccncn3)cc2Cl)C1 | 8.93

(P) O=S(=O)(Nc1ccncn1)c1cc(F)c(N[C@H]2CC[C@H](c3cccc(C(F)(F)F)c3)C[C@@H]2N2CCCC2)cc1F [Example 23, formate]
(Q) CN(C)[C@H]1C[C@@H](c2cccc(C(F)(F)F)c2F)CC[C@@H]1Nc1cc(F)c(S(=O)(=O)Nc2ccncn2)cc1Cl
(R) CN(C)[C@H]1C[C@@H](c2cccc(C(F)(F)F)c2)CC[C@@H]1n1ccc2cc(S(=O)(=O)Nc3ccncn3)c(F)cc21 [Example 10, formate]
Please give the order of these molecules when sorted by pIC50, largest value leading. # format: label list in the order the request specifies
Q, P, R
(Q: 9.03, P: 8.79, R: 8.56)

* * *

tested-system: hNav1.7 (Homo sapiens (Human))
experimental-protocol: Tritiated compound binding to membranes from cells heterologously expressing hNav1.7 and the β1 subunit (Nav1.7 LBA)
run-parameters: competitive binding vs [3H]compound, membranes with hNav1.7 and β1 subunit; read-out: Nav1.7 LBA EVO IC50
pIC50: −log10 of the molar value. Counter-ions that a name gives are not always drawn.
measured-attribute: pIC50

CN(C)[C@H]1C[C@@H](c2cccc(OC3CC3)c2)CC[C@@H]1Nc1cc(F)c(S(=O)(=O)Nc2ccncn2)cc1Cl | 8.15
CN(C)[C@H]1C[C@@H](c2ccc(Cl)c(Cl)c2)CC[C@@H]1Oc1cc(F)c(S(=O)(=O)Nc2ccncn2)cc1Cl [Example 67, formate] | 8.42
O=S(=O)(Nc1ccncn1)c1cc(Cl)c(O[C@H]2CC[C@H](c3cccc(C(F)(F)F)c3)C[C@@H]2N2CCCC2)cc1F [Example 60, formate] | 8.80
CN1CC(N(C)[C@H]2C[C@@H](c3cccc(C(F)(F)F)c3)CC[C@@H]2Nc2cc(F)c(S(=O)(=O)Nc3ccncn3)cc2Cl)C1 | 9.40
CN(C)[C@H]1C[C@@H](c2cc(C(F)(F)F)ccc2F)CC[C@@H]1Nc1cc(F)c(S(=O)(=O)Nc2ccncn2)cc1Cl | 8.99
CN(CCO)[C@H]1C[C@@H](c2cccc(C(F)(F)F)c2)CC[C@@H]1Nc1cc(F)c(S(=O)(=O)Nc2ccncn2)cc1Cl | 9.21

(I) CN(C)CC(=O)N(C)[C@H]1C[C@@H](c2cccc(C(F)(F)F)c2)CC[C@@H]1Nc1cc(F)c(S(=O)(=O)Nc2ccncn2)cc1Cl [Example 29, formate]
(II) CN(C)[C@H]1C[C@@H](c2ccc(Cl)c(Cl)c2)CC[C@@H]1Nc1cc(F)c(S(=O)(=O)Nc2ccncn2)cc1Cl
Pick one: I or II . Which has the bigger pIC50 number? Output the label that corresponds to your choice.
II
(II: 8.92, I: 8.45)

* * *

tested-system: UniProt Q15858
experimental-protocol: Tritiated compound binding to membranes from cells heterologously expressing hNav1.7 and the β1 subunit (Nav1.7 LBA)
run-parameters: competitive binding vs [3H]compound, membranes with hNav1.7 and β1 subunit; read-out: Nav1.7 LBA EVO IC50
Structures can show the parent of a compound that is named as a salt.
measured-attribute: IC50 (nM)

(P) CN(C)[C@H]1C[C@@H](c2cccc(OC(F)(F)F)c2)CC[C@@H]1Nc1cc(F)c(S(=O)(=O)Nc2ccncn2)cc1F
(Q) O=S(=O)(Nc1ccncn1)c1cc(F)c(N[C@H]2CC[C@H](c3cc(F)cc(C(F)(F)F)c3)C[C@@H]2N2CCCC2)cc1F [Example 85, formate]
(R) CN(C)[C@H]1C[C@@H](c2cc(Cl)ccc2Cl)CC[C@@H]1Oc1cc(F)c(S(=O)(=O)Nc2ccncn2)cc1Cl [Example 65, formate]
Descending by IC50 please, for everything listed above. # format: label list in the order the request specifies
R, Q, P

* * *

tested-system: hNav1.7 (Homo sapiens (Human))
experimental-protocol: Electrophysiological assay (EP), voltage clamp on Syncropatch 384PE, CHO cells stably expressing Nav1.7
Type: cell-based
run-parameters: holding potential −50 mV, 7.5 min compound incubation, read-out: EP_SP hNav1.7 EVO IC50
Structures can show the parent of a compound that is named as a salt.
measured-attribute: IC50 (nM)

CN(C)[C@H]1C[C@@H](c2cccc(-c3ccnn3C)c2)CC[C@@H]1Nc1cc(F)c(S(=O)(=O)Nc2ccncn2)cc1Cl | 8.03
CCN[C@H]1C[C@@H](c2cccc(C(F)(F)F)c2)CC[C@@H]1Oc1cc(F)c(S(=O)(=O)Nc2ccncn2)cc1Cl [Example 68, formate] | 0.737
CN(C)CC(=O)N(C)[C@H]1C[C@@H](c2cccc(C(F)(F)F)c2)CC[C@@H]1Nc1cc(F)c(S(=O)(=O)Nc2ccncn2)cc1Cl [Example 29, formate] | 2.25
CN1CC[C@H](C(=O)N(C)[C@H]2C[C@@H](c3cccc(C(F)(F)F)c3)CC[C@@H]2Nc2cc(F)c(S(=O)(=O)Nc3ccncn3)cc2Cl)C1 | 0.629

(I) O=C1COc2cc(S(=O)(=O)Nc3ccncn3)c(F)cc2N1[C@H]1CC[C@H](c2cccc(C(F)(F)F)c2)C[C@@H]1N1CCCC1
(II) CN(C)[C@H]1C[C@@H](c2ccccc2C(F)(F)F)CC[C@@H]1Nc1cc(F)c(S(=O)(=O)Nc2ccncn2)cc1Cl (single isomer, unassigned)
Dear colleague, could you let me know whether I or II has the lower recorded IC50? Thanks. Output the label that corresponds to your choice.
I

Ref: patent US11028075B2
